All values here come from ChEMBL document CHEMBL3621181.

- Measurement Target: Prokineticin receptor 1 (Homo sapiens, UniProt Q8TCW9)
- Sequence (Q8TCW9 whole entry): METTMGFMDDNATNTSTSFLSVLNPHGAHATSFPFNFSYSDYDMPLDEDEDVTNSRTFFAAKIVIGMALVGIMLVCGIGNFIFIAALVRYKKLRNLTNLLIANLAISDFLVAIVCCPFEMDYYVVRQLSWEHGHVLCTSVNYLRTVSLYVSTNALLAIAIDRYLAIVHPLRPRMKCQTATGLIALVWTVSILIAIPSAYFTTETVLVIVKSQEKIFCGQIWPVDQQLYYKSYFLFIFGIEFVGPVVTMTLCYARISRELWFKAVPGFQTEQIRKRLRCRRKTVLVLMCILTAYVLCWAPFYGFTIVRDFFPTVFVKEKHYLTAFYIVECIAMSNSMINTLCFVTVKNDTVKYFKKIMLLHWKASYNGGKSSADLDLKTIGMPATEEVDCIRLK
- Measurement Description: Antagonist activity at human PKR1 expressed in rat RBL2H3 cells assessed as inhibition of PK1-stimulated intracellular calcium release incubated for 10 mins prior to PK1 stimulation by FLIPR assay
pIC50: −log10 of the molar value.
pIC50 values for the compounds below.
Readout Type: pIC50

compound="CC(C)n1c(C2CCCN(C(=O)c3ccnc(N(C)C)c3)C2)nc2ccccc21 (configuration not stated)" measurement_target="Prokineticin receptor 1 (Homo sapiens, UniProt Q8TCW9)" limit_operator== quantitative_readout=6.49
compound="COC1(c2ncc(Cl)cc2C)CCCN(C(=O)c2cn(C)nc2N)C1 (configuration not stated)" measurement_target="Prokineticin receptor 1 (Homo sapiens, UniProt Q8TCW9)" limit_operator=< quantitative_readout=5.05
